ASSAYED_TARGET: 3-oxo-5-alpha-steroid 4-dehydrogenase 1 (Homo sapiens)
ASSAY: Inhibitory activity against type-1 human steroid 5-alpha-reductase.
MEASURED_PARAMETER: pIC50
Note on units: pIC50 is unitless, being -log10 of a concentration expressed in mol/L.

Value of pIC50 reported for the compound CC(C)(C)NC(=O)[C@H]1CC[C@H]2[C@@H]3CC[C@H]4NC(=O)C=C[C@]4(C)[C@H]3CC[C@]12C [FINASTERIDE] is 6.30

====

ASSAYED_TARGET: 3-oxo-5-alpha-steroid 4-dehydrogenase 1 (Homo sapiens, UniProt P18405)
Sequence (P18405 whole entry): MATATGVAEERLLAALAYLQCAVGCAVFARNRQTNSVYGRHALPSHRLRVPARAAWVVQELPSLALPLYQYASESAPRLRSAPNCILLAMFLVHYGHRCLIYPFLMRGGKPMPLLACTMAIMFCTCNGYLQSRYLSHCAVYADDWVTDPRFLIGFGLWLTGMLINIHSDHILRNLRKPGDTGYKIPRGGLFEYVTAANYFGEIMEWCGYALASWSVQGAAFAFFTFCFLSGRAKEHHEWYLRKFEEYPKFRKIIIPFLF
Some molecules, each annotated with its measured Ki.
Write the answer as a number in nM, unit excluded.

MOLECULE: CC(C)(C)NC(=O)[C@H]1CC[C@H]2[C@@H]3CCc4cc(C(=O)O)ccc4[C@H]3CC[C@]12C
MEASURED_PARAMETER: Ki
UOM: nM
DATA_VALUE: 1600
--
MOLECULE: CCN(CC)C(=O)[C@H]1CC[C@H]2[C@@H]3CC[C@H]4N(C)C(=O)CC[C@]4(C)[C@H]3CC[C@]12C
MEASURED_PARAMETER: Ki
UOM: nM
DATA_VALUE: 3
--
MOLECULE: O=C(O)c1ccc2c(c1)CCc1cc(Cl)ccc1-2
MEASURED_PARAMETER: Ki
UOM: nM
DATA_VALUE: 320
--
MOLECULE: CC1=C2NCc3cc(Cl)ccc3[C@@]2(C)CCC1=O
MEASURED_PARAMETER: Ki
UOM: nM
DATA_VALUE: 920
--
MOLECULE: C[C@]12CCC([PH](=O)O)=CC1=CCc1cc(Cl)ccc12
MEASURED_PARAMETER: Ki
UOM: nM
DATA_VALUE: 1900

We now examine a further molecule.
Value of Ki reported for the molecule CC(C)(C)NC(=O)[C@H]1CCC2C3CC=C4C=C([PH](=O)O)CC[C@]4(C)C3CC[C@@]21C (some centres not stated) is 3200
